- system.tested: Human immunodeficiency virus type 1 reverse transcriptase (Human immunodeficiency virus 1)
- test.name: Inhibition of HIV1 reverse transcriptase at 100 ug/ml incubated for 1 hr by ELISA method
Values of inhibition greater than or equal to 50% map to met; values below map to not met.

Query: Quick check: does O=C(CCN1CCN(C(=S)NC2CCCCC2)CC1)c1ccccc1 have inhibition greater than or equal to 50%?
Result: not met

Query: // query: FC(F)(F)c1ccc(OC(CCN2CCN(C(=S)Nc3ccccc3)CC2)c2ccccc2)cc1 (centres undefined)
Result: not met

Query: Then OC(CCN1CCN(C(=S)NCc2ccccc2)CC1)c1ccccc1 (centres undefined) ?
Result: not met

Query: Try this molecule too: O=C(CCN1CCN(C(=S)NCc2ccccc2)CC1)c1ccccc1
Result: met

Query: # iterate: FC(F)(F)c1ccc(OC(CCN2CCN(C(=S)NC3CCCCC3)CC2)c2ccccc2)cc1 (centres undefined)
Result: not met

Query: Same question, CCCCNC(=S)N1CCN(CCC(=O)c2ccccc2)CC1 this time
Result: met

Query: Input OC(CCN1CCN(C(=S)NC2CCCCC2)CC1)c1ccccc1 (centres undefined)
Result: not met

Query: Now the same for FC(F)(F)c1ccc(OC(CCN2CCN(C(=S)NCCc3ccccc3)CC2)c2ccccc2)cc1 (centres undefined)
Result: not met

Query: Then OC(CCN1CCN(C(=S)NCCc2ccccc2)CC1)c1ccccc1 (centres undefined) ?
Result: not met

Query: Also CCCCNC(=S)N1CCN(CCC(O)c2ccccc2)CC1 (centres undefined) , if possible.
Result: not met

Query: Thanks! And CCCCNC(=S)N1CCN(CCC(Oc2ccc(C(F)(F)F)cc2)c2ccccc2)CC1 (centres undefined) ?
Result: met

Hello, the source for this data is ChEMBL document CHEMBL3612038, in case you need it.
